Tested on: Huh6 cells
test: Cell viability assay (CellTiter 96 AQueous One / MTS) in Huh6
Assay type: cell-based, human
measurementParameters: Homo sapiens, HuH-6
pIC50: −log10 of the molar value.
parameterMeasured: pIC50

• CC[C@H](C)n1cc(C)c2c(C(=O)NCc3c(C)cc(C)[nH]c3=O)cc(-c3ccc(N4CCNCC4)nc3)cc21 = 5.22

Attribution: patent US20240408081A1
